# MEASUREMENT_TARGET: Fes (UniProt P07332)
# Sequence (P07332 whole entry, looked up): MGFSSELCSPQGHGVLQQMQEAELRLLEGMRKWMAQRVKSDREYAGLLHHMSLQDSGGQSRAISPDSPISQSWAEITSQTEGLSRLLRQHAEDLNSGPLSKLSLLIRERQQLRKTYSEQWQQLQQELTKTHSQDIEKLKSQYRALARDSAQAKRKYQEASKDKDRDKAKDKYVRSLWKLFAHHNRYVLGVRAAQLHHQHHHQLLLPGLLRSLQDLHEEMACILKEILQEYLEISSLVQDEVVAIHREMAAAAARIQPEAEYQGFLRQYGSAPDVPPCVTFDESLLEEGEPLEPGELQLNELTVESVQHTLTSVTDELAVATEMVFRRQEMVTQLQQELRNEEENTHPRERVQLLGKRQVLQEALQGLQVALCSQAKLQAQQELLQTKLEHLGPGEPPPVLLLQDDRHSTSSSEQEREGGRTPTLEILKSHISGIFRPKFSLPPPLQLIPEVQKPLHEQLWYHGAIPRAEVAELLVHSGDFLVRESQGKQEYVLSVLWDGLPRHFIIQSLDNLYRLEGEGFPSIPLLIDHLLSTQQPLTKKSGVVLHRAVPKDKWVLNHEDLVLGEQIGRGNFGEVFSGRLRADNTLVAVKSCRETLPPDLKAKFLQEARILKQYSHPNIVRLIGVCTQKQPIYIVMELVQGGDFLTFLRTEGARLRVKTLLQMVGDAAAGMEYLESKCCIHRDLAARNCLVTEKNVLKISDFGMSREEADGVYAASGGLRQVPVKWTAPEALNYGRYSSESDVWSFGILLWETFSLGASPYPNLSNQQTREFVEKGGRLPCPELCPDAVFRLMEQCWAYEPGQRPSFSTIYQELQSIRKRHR
# PROTOCOL: phosphorylation enrichment, bacterial display (enrichment ratio); higher = better substrate or ligand; peptides without Tyr show the background;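 note: 11-residue human phosphosite peptides and single-mutation variants displayed on the E. coli surface, counted by deep sequencing, each peptide's frequency after selection divided by its frequency in the unselected input library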;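 note: frequency after pTyr selection over input frequency; kinase dosed for 20-30% of maximal phosphorylation in three min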
MEASUREMENT_TYPE: phosphorylation enrichment
Please state the value as a number alone, without comment.

Use these answered entries as a reference point.
- SEQUENCE_DATA: "YQSKHYACIRQ [TIMP3_Y182]"
  phosphorylation enrichment: 0.762
- SEQUENCE_DATA: "EVESPYEVHDF [GIGYF2_Y1168_YF]"
  phosphorylation enrichment: 1.3

We next turn to a different sequence, shown below.
Sure, the documented phosphorylation enrichment for APGNAYGDAGF [SYP_Y250_D248N_YF] is 0.504

====

# Tested on: Fer (mouse)
# PROTOCOL: phosphorylation enrichment, bacterial display (enrichment ratio); higher = better substrate or ligand; peptides without Tyr show the background
Kindly note that classification relies on phosphorylation enrichment with these boundaries: class A (below 0.4), class B (0.4 to below 0.6), class C (0.6 or more)

Completed entries (count: 5):
- SEQUENCE_DATA: "HDKEFYSVHNK [MET_Y1235_Y1230H_YF]"
  ASSIGNED_LABEL: "class C"
- SEQUENCE_DATA: "KIVATYRLCSE [DNAH3_Y1586]"
  ASSIGNED_LABEL: "class B"
- SEQUENCE_DATA: "ERPIRYLNHQL [CEP152_Y268_Q265P]"
  ASSIGNED_LABEL: "class B"
- SEQUENCE_DATA: "DHCNQYEQQKM [CHD7_Y75_Y72C]"
  ASSIGNED_LABEL: "class B"
- SEQUENCE_DATA: "DSKIRYLSADS [TTF1_Y476_E473K]"
  ASSIGNED_LABEL: "class A"

[Q] State the class of the sequence shown: PLQNTYNYNVL [SLC4A1_Y553_K551N]
[A] class A

[Q] State the class of the sequence shown: FSAPNYCYRCG [PPP2CA_Y265]
[A] class A

[Q] State the class of the sequence shown: LSSEMCVKSFT [F5_Y2149_Y2149C_YF]
[A] class C

[Q] State the class of the sequence shown: QMWLKYSQSDL [SMC1A_Y714_R711W]
[A] class B

[Q] State the class of the sequence shown: NWGKKYPTCNS [PTPRZ1_Y53]
[A] class B

[Q] State the class of the sequence shown: RSFLSYYTSHV [NEFL_Y442_P440L]
[A] class B

[Q] State the class of the sequence shown: YGGLRYGYGVL [KRTAP20-2_Y13]
[A] class B

[Q] State the class of the sequence shown: TEYSQYMRRKN [MAX_Y73_I71S]
[A] class B

[Q] State the class of the sequence shown: VQEDIYDEFVE [ALDH2_Y332]
[A] class C

[Q] State the class of the sequence shown: KKYPDYIQIAM [SGMS2_Y59]
[A] class B

[Q] State the class of the sequence shown: LYVDVYGPSVP [NUBPL_Y109_D105Y]
[A] class C

[Q] State the class of the sequence shown: NRLTDYYEPLL [BBS10_Y536]
[A] class C

====

# MEASUREMENT_TARGET: EPHB2 (UniProt P29323)
# Sequence (P29323 whole entry, looked up): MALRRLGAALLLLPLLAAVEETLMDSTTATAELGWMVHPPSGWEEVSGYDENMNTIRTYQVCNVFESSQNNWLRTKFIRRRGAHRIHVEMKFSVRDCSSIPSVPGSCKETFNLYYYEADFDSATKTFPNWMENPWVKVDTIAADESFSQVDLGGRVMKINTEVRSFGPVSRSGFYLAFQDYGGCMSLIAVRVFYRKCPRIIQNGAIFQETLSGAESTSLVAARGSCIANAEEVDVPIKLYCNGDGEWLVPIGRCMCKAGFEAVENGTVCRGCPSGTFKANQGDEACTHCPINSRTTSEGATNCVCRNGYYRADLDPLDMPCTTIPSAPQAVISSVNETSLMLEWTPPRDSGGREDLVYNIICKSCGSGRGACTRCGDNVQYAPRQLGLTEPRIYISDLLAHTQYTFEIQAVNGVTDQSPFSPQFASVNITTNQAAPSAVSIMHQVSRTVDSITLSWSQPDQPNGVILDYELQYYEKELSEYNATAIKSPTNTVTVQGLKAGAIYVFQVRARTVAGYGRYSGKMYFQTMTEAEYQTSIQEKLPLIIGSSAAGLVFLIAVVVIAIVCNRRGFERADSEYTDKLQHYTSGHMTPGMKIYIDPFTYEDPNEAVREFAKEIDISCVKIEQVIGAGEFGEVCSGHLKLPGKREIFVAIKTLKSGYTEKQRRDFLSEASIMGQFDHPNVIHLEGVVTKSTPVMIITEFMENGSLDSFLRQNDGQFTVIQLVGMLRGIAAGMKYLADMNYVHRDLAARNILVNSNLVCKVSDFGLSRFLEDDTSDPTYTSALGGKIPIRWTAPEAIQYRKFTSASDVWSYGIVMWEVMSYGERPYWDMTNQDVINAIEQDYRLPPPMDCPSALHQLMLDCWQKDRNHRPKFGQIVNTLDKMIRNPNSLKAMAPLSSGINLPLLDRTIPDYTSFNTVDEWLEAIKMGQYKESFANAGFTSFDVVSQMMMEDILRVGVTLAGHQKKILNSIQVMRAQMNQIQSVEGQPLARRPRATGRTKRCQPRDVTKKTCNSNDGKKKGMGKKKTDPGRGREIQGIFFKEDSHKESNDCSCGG
# PROTOCOL: phosphorylation enrichment, bacterial display (enrichment ratio); higher = better substrate or ligand; peptides without Tyr show the background
Kindly note that classification relies on phosphorylation enrichment with these boundaries: 1 = under 0.5, 2 = from 0.5 up to 0.7, 3 = 0.7 and over

Completed entries (count: 5):
- SEQUENCE_DATA: "LNAGAYSKVVE [PPT1_Y172_Q177E]"
  MEASUREMENT_TARGET: "EPHB2 (UniProt P29323)"
  ASSIGNED_LABEL: 1
- SEQUENCE_DATA: "VRQQDYKKVEE [HADHA_Y283_V282D]"
  MEASUREMENT_TARGET: "EPHB2 (UniProt P29323)"
  ASSIGNED_LABEL: 2
- SEQUENCE_DATA: "HNVAIYEGFAL [ACTC1_Y168_P166A_YF]"
  MEASUREMENT_TARGET: "EPHB2 (UniProt P29323)"
  ASSIGNED_LABEL: 3
- SEQUENCE_DATA: "FEGHSYSACTT [MMP9_Y241_R239H]"
  MEASUREMENT_TARGET: "EPHB2 (UniProt P29323)"
  ASSIGNED_LABEL: 2
- SEQUENCE_DATA: "QRAADYYSQQM [GBP6_Y333]"
  MEASUREMENT_TARGET: "EPHB2 (UniProt P29323)"
  ASSIGNED_LABEL: 3

[Q] State the class of the sequence shown: KLVQLYDVCTK [BTK_Y461_G462D]
[A] 3

[Q] State the class of the sequence shown: KQRSDYARELE [MYH3_Y1140]
[A] 1

[Q] State the class of the sequence shown: VTPVMYTFDEF [COL10A1_Y623_G618V_YF]
[A] 2

[Q] State the class of the sequence shown: IHSGIYFKPES [L2HGDH_Y102_YF]
[A] 2

[Q] State the class of the sequence shown: ASPKSYPSQKH [CAP2_Y316_T311A]
[A] 1

[Q] State the class of the sequence shown: KKYPDYIQIAM [SGMS2_Y59]
[A] 3

[Q] State the class of the sequence shown: KRLDGYVLEGR [IGSF9_Y656]
[A] 1

[Q] State the class of the sequence shown: PVQAAYQKVEA [HBB_Y131_V135E]
[A] 2

[Q] State the class of the sequence shown: MLEVSYVDRNS [F10_Y384_P383S]
[A] 2

[Q] State the class of the sequence shown: KNDSNYVVKGN [KIT_Y823]
[A] 1

[Q] State the class of the sequence shown: SSFPDYLAAVD [GLB1_Y154_D151Y_YF]
[A] 2

[Q] State the class of the sequence shown: GREYIYVDPMQ [PDGFRA_Y574_H570R]
[A] 3

[Q] State the class of the sequence shown: LLREWYLPDPY [SIX3_Y225_Q227P]
[A] 1

[Q] State the class of the sequence shown: LMQAEYWHDPI [PPT1_Y185_V181M]
[A] 3

====

# MEASUREMENT_TARGET: MERTK (UniProt Q12866)
# Sequence (Q12866 whole entry, looked up): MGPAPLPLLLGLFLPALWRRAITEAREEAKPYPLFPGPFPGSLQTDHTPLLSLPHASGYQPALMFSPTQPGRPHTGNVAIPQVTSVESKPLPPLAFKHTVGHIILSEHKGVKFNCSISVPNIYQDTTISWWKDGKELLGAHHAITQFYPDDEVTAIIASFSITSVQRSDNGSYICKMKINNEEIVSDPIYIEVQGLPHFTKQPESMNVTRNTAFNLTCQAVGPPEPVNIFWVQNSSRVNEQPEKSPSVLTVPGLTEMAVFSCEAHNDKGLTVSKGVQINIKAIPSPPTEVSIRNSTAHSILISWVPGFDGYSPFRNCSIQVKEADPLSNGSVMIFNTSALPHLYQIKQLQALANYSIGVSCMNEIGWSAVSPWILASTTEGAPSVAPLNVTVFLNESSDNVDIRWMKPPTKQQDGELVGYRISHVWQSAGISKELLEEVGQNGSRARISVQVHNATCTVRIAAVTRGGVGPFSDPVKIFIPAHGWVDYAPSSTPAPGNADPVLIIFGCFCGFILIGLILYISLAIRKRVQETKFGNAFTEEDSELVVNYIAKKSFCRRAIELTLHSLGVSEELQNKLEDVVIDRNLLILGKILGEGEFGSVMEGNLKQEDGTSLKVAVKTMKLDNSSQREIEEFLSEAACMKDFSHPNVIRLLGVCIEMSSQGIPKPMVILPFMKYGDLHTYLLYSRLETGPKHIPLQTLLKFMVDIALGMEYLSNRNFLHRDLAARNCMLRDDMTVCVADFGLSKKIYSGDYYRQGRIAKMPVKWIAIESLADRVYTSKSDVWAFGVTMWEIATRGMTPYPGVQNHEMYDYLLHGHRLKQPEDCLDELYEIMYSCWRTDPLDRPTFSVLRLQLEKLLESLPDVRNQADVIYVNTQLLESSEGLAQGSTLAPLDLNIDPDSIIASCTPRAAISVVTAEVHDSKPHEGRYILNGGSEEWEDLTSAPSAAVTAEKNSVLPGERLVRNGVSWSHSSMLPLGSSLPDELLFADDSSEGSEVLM
# PROTOCOL: phosphorylation enrichment, bacterial display (enrichment ratio); higher = better substrate or ligand; peptides without Tyr show the background
Assign class by phosphorylation enrichment: not lower than 0.6 means 1 (yes); lower than 0.6 means 0 (no).

Completed entries (count: 4):
- SEQUENCE_DATA: "YLEKYYKFGCR [NNMT_Y25_S29C]"
  MEASUREMENT_TARGET: "MERTK (UniProt Q12866)"
  ASSIGNED_LABEL: "1 (yes)"
- SEQUENCE_DATA: "LFDPDYMKVIL [CYP4A22_Y104_YF]"
  MEASUREMENT_TARGET: "MERTK (UniProt Q12866)"
  ASSIGNED_LABEL: "0 (no)"
- SEQUENCE_DATA: "TVLEPYTDPFF [ZC3H18_Y367_A368T_YF]"
  MEASUREMENT_TARGET: "MERTK (UniProt Q12866)"
  ASSIGNED_LABEL: "0 (no)"
- SEQUENCE_DATA: "PQGVRYTFTID [DCX_Y103_I104T_YF]"
  MEASUREMENT_TARGET: "MERTK (UniProt Q12866)"
  ASSIGNED_LABEL: "0 (no)"

[Q] Check the entry TEYSQYMRRKN [MAX_Y73_I71S] : does phosphorylation enrichment equal or exceed 0.6?
[A] 0 (no)

====

Listed next: entries and their corresponding phosphorylation enrichment.
# Tested on: c-Abl (mouse)
# PROTOCOL: phosphorylation enrichment, bacterial display (enrichment ratio); higher = better substrate or ligand; peptides without Tyr show the background

Use these answered entries as a reference point.
- SEQUENCE_DATA: "TKGMIYGGGGG [PSME1_Y249]"
  phosphorylation enrichment: 0.613
- SEQUENCE_DATA: "RRAKGYPIDLF [ITGB2_Y125_YF]"
  phosphorylation enrichment: 0.771
- SEQUENCE_DATA: "GHMFAYDWISI [BEST1_Y227_L224M_YF]"
  phosphorylation enrichment: 0.922
- SEQUENCE_DATA: "SHSMRYFSTAV [HLA-C_Y31_D33S]"
  phosphorylation enrichment: 0.578
- SEQUENCE_DATA: "TTPGPHRSIYF [MPG_Y71_Y71H]"
  phosphorylation enrichment: 0.538

Sure, the documented phosphorylation enrichment for NVTRKYSRQIL [MAP3K2_Y463_T464S] is 0.399

Sure, the documented phosphorylation enrichment for PLGKDYRKAEG [MAP1A_Y1909] is 0.505

Sure, the documented phosphorylation enrichment for KGSLPYNLILD [PKD1L2_Y406] is 0.743

Sure, the documented phosphorylation enrichment for PRNLIYFGEHP [TRPV6_Y201_C197R] is 0.92

Sure, the documented phosphorylation enrichment for KFADVYVGICL [B3GALNT1_Y269_E266A] is 1.29

Sure, the documented phosphorylation enrichment for QFLMKYVRSAS [ABCD1_Y337_W339R] is 0.82

Sure, the documented phosphorylation enrichment for QTEGEYSSLEH [IDH3B_Y171] is 1.94

Sure, the documented phosphorylation enrichment for AEYGLYGAMVW [VSX2_Y222_R227W] is 1.1

Sure, the documented phosphorylation enrichment for NPETCYQKLKK [TK2_Y190_R192K] is 0.765

Sure, the documented phosphorylation enrichment for AKGMKYLASKK [MET_Y1194] is 0.445

Sure, the documented phosphorylation enrichment for KNNDGYTDFAE [MCFD2_Y135_I136T_YF] is 0.731

Sure, the documented phosphorylation enrichment for ILLAGCLVMVI [SLC28A3_Y113_Y113C] is 0.995

Sure, the documented phosphorylation enrichment for YLEKYYKFGCR [NNMT_Y25_S29C] is 1.02

Sure, the documented phosphorylation enrichment for FLLTVYSIFSK [SGCE_Y38] is 0.899
